- methodSummary: Half life in Swiss albino mouse at 40 mg/kg, po by LC-MS/MS analysis
- Format: ADME, organism-based
- testConditions: in vivo
parameterMeasured: half-life (h)
# value in h; strip the unit string

See these solved cases before continuing.
{"structureSmilesString": "O=[N+]([O-])c1cn2c(n1)OC[C@H](Oc1ccc(OC(F)(F)F)cc1)C2", "parameterMeasured": "half-life", "testResult": 7.8}
{"structureSmilesString": "O=[N+]([O-])c1cn2c(n1)OC[C@H](Oc1ccc(C(F)(F)F)cn1)C2", "parameterMeasured": "half-life", "testResult": 30}
{"structureSmilesString": "O=[N+]([O-])c1cn2c(n1)OC[C@H](OCc1ccc(-c3ccc(OC(F)(F)F)cc3)cn1)C2", "parameterMeasured": "half-life", "testResult": 9.4}

Shift focus to the following entry.
Data point: O=[N+]([O-])c1cn2c(n1)OC[C@H](OCc1ccc(-c3ccc(OC(F)(F)F)cc3F)cn1)C2 ; half-life = 6.1

---

- methodSummary: Metabolic stability in hamster liver microsomes assessed as parent compound remaining at 1 uM after 1 hr
- Type: ADME, microsome
- testConditions: read-out: Stability
# strict inequality: remaining at 1 h, 1 µM < 10% yields 1, everything else yields 0

{"structureSmilesString": "O=[N+]([O-])c1cn2c(n1)OC[C@H](OCc1ccc(-c3ccc(OC(F)F)cc3)nc1)C2", "labelValue": 1}
{"structureSmilesString": "O=[N+]([O-])c1cn2c(n1)OC[C@H](Oc1ccc(C(F)(F)F)cn1)C2", "labelValue": 0}
{"structureSmilesString": "O=[N+]([O-])c1cn2c(n1)OC[C@H](NCc1ccc(OC(F)(F)F)cc1)C2", "labelValue": 1}
{"structureSmilesString": "O=[N+]([O-])c1cn2c(n1)OC[C@H](Oc1ccc(OC(F)(F)F)cc1)C2", "labelValue": 0}

Given the entry O=[N+]([O-])c1cn2c(n1)OC[C@H](OCc1ccc(-c3ccc(OC(F)(F)F)cc3Cl)cn1)C2 , would its reported remaining at 1 h, 1 µM be below 10%?
1

Hello, I'm reviewing records and need to know if remaining at 1 h, 1 µM of O=C(N[C@H]1COc2nc([N+](=O)[O-])cn2C1)c1cccc(OC(F)(F)F)c1 is below 10%. Could you check?
0

---

- methodSummary: Tmax in Swiss albino mouse at 25 mg/kg, po by LC-MS/MS analysis
- Format: ADME, organism-based
- testConditions: in vivo
parameterMeasured: Tmax (h)
Report the value in h with no unit label.

{"compound": "O=[N+]([O-])c1cn2c(n1)OCC(COc1ccc(OC(F)(F)F)cc1)C2 (stereo not drawn)", "Tmax (h)": 1}
{"compound": "O=[N+]([O-])c1cn2c(n1)OCC(COc1ccc(-c3ccc(F)cc3)nc1)C2 (stereo not drawn)", "Tmax (h)": 8}

For reference, reported Tmax for O=[N+]([O-])c1cn2c(n1)OCC(COc1ccc(-c3ccc(OC(F)(F)F)cc3)nc1)C2 (stereo not drawn) stands at 10

---

- methodSummary: Initial concentration in golden Syrian hamster at 2 mg/kg, iv by LC-MS/MS analysis
- Assay type: ADME, organism-based, Mesocricetus auratus
- testConditions: in vivo
parameterMeasured: C0 (ng/mL)
Provide only the numeric value, understood in ng/mL.

Some solved cases for reference:
{"structureSmilesString": "O=[N+]([O-])c1cn2c(n1)OC[C@H](Oc1ccc(OC(F)(F)F)cc1)C2", "C0 / ng/mL": 660}
{"structureSmilesString": "O=[N+]([O-])c1cn2c(n1)OC[C@H](OCc1ccc(-c3ccc(F)cc3F)cn1)C2", "C0 / ng/mL": 930}
{"structureSmilesString": "O=[N+]([O-])c1cn2c(n1)OC[C@H](OCc1ccc(-c3ccc(OC(F)(F)F)cc3F)cn1)C2", "C0 / ng/mL": 940}
{"structureSmilesString": "O=[N+]([O-])c1cn2c(n1)OC[C@H](OCc1ccc(-c3ccc(OC(F)(F)F)cc3)cn1)C2", "C0 / ng/mL": 650}

Next compound, C0 to be filled in.
So for O=[N+]([O-])c1cn2c(n1)OC[C@H](OCc1ccc(-c3ccc(F)cc3F)nc1)C2 , the logged C0 turned out to be 520
